Details: in acetone, 303.15 K
readout name: solubility (mole fraction)
Give bare numbers.

Notebook: O=C(N[C@@H](Cc1c[nH]c2ccccc12)C(=O)O)OCc1ccccc1 , solubility (mole fraction) read as 0.358

----------
Settings: in water, 308.15 K
readout name: solubility (mole fraction)
Numbers only.

Entry O=C(N[C@@H](Cc1c[nH]c2ccccc12)C(=O)O)OCc1ccccc1 ; solubility (mole fraction) = 9.81e-05

----------
Details: in n-butanol, 298.15 K
readout name: solubility (mole fraction)
Numbers only.

Item: O=C(N[C@@H](Cc1c[nH]c2ccccc12)C(=O)O)OCc1ccccc1 | solubility (mole fraction): 0.0403

----------
Details: in acetone, 293.15 K
readout name: solubility (mole fraction)
Answers are plain numbers.

Measured solubility (mole fraction), O=C(N[C@@H](Cc1c[nH]c2ccccc12)C(=O)O)OCc1ccccc1 : 0.264
